Give ALBUMIN for every item shown.
species: Rattus norvegicus; test: DrugMatrix - Regimen: Daily Repeat; format: toxicity, organism-based, Sprague-Dawley; set-up: regimen Daily Repeat, gender Male, age 6-8 weeks; settings: in vivo, po, 10 mg/kg, 72 h, tissue Plasma, route oral GAVAGE, dose level Low, time 3 day, vehicle .5 % CMC
Numbers only, in G/DL.

{"COMPOUND": "O=C1CN=C(c2ccccc2Cl)c2cc([N+](=O)[O-])ccc2N1", "ENDPOINT UNIT": "G/DL", "ALBUMIN": 4.1}
{"COMPOUND": "Fc1ccc(C(c2ccc(F)cc2)N2CCN(C/C=C/c3ccccc3)CC2)cc1", "ENDPOINT UNIT": "G/DL", "ALBUMIN": 4.7}
{"COMPOUND": "CNCCC(Oc1ccc(C(F)(F)F)cc1)c1ccccc1 (centres undefined)", "ENDPOINT UNIT": "G/DL", "ALBUMIN": 4}

Input: Record request: ALBUMIN value, item O=C1C(CC[S+]([O-])c2ccccc2)C(=O)N(c2ccccc2)N1c1ccccc1 (centres undefined)
Output: 4.23
